SYSTEM_UNDER_TEST: Alpha-2C adrenergic receptor (Homo sapiens, UniProt P18825); further: assay procedure not described here
Sequence (P18825 whole entry): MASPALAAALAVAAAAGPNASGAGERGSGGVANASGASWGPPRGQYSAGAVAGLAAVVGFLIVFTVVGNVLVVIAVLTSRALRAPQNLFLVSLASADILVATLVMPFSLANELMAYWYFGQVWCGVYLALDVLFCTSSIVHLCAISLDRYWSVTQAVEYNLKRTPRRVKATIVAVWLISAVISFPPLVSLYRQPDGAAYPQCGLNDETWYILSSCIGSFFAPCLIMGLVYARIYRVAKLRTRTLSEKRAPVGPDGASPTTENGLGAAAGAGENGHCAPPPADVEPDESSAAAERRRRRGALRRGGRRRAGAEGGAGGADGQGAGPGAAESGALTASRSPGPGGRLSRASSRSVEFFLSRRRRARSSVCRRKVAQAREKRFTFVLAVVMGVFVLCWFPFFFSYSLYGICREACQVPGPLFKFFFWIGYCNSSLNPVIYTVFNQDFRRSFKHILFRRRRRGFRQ
Assay type: functional
Listed next: entries and their corresponding AC50.

C#C[C@]1(O)CC[C@H]2[C@@H]3CCc4cc(OC5CCCC5)ccc4[C@H]3CC[C@@]21C
> 10 µM
O=C(O)C1=C(CSc2nnnn2CS(=O)(=O)O)CS[C@@H]2[C@H](NC(=O)[C@H](O)c3ccccc3)C(=O)N12
> 30 µM
CNC(=O)c1ccccc1Sc1ccc2c(/C=C/c3ccccn3)n[nH]c2c1
> 30 µM
O=C(O)[C@H](CC(=O)N1C[C@H]2CCCC[C@H]2C1)Cc1ccccc1 [MITIGLINIDE]
> 10 µM
CC[C@@H](C(N)=O)N1CCCC1=O
> 30 µM

AC50 lookup needed for C#C[C@]1(O)CC[C@H]2[C@@H]3[C@H](C)CC4=C(CCC(=O)C4)[C@H]3CC[C@@]21C , thanks.
> 30 µM

* * *

As an illustration, consider measured AC50 for molecules on Adenosine receptor A3 (Homo sapiens, UniProt P0DMS8).
Sequence (P0DMS8 whole entry): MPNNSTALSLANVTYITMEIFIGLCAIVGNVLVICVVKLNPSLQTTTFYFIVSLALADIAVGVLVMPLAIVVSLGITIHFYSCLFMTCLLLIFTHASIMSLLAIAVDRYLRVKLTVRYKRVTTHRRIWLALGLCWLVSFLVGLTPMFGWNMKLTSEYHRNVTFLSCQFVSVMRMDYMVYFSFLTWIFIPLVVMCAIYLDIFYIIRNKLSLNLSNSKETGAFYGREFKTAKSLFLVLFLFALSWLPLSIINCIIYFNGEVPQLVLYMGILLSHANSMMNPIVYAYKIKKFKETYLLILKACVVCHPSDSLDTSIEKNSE

Field: example entries. Status: answers known.
Cc1cccc(Nc2ccccc2C(=O)O)c1C
> 10 µM
c1ccc([C@H]2CN3CCSC3=N2)cc1
> 30 µM
C=CCN1CCCC1CNC(=O)c1cc(S(N)(=O)=O)cc(OC)c1OC (stereo unspecified) [VERALIPRIDE]
> 30 µM
CS(=O)(=O)c1ccc(C2=C(c3ccccc3)C(=O)OC2)cc1
> 30 µM
CCOC(=O)[C@H](CCc1ccccc1)N[C@@H](C)C(=O)N1C(=O)N(C)C[C@H]1C(=O)O
> 30 µM

Next molecule, AC50 to be filled in.
AC50 lookup needed for CN1C(=O)C(O)N=C(c2ccccc2)c2cc(Cl)ccc21 (stereo unspecified) , thanks.
> 30 µM

* * *

As an illustration, consider measured AC50 for compounds on Equilibrative nucleoside transporter 1 (Homo sapiens, UniProt Q99808).
Sequence (Q99808 whole entry): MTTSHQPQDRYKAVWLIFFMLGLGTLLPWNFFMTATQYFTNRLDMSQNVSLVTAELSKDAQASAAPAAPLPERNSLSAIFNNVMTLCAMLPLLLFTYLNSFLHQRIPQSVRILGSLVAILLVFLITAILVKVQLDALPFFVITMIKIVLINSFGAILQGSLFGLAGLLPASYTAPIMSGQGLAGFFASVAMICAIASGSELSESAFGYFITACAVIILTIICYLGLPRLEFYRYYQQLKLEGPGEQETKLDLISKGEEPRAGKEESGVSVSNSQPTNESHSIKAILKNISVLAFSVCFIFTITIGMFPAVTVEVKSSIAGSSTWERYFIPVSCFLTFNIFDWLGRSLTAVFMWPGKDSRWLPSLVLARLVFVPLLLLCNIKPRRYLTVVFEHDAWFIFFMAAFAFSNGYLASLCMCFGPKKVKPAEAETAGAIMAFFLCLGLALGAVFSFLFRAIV

Requested read-out AC50, target or system Equilibrative nucleoside transporter 1 (Homo sapiens, UniProt Q99808), entry NCC(CC(=O)O)c1ccc(Cl)cc1 (stereo not drawn) [BACLOFEN]; further: assay procedure not described here
> 30 µM

Requested read-out AC50, target or system Equilibrative nucleoside transporter 1 (Homo sapiens, UniProt Q99808), entry Cc1cc(O)c(C(=O)N[C@@H](C(=O)N[C@@H]2C(=O)N3C(C(=O)O)=C(CSc4nnnn4C)CS[C@H]23)c2ccc(O)cc2)cn1 [CEFPIRAMIDE]; further: assay procedure not described here
> 30 µM

Requested read-out AC50, target or system Equilibrative nucleoside transporter 1 (Homo sapiens, UniProt Q99808), entry Cc1cccc(Nc2ccccc2C(=O)O)c1C [MEFENAMIC ACID]; further: assay procedure not described here
> 10 µM

Requested read-out AC50, target or system Equilibrative nucleoside transporter 1 (Homo sapiens, UniProt Q99808), entry CCCSc1ccc2nc(NC(=O)OC)[nH]c2c1 [ALBENDAZOLE]; further: assay procedure not described here
> 30 µM

* * *

Listed next: entries and their corresponding AC50.
SYSTEM_UNDER_TEST: 5-hydroxytryptamine receptor 1A (Homo sapiens, UniProt P08908); further: assay procedure not described here
Sequence (P08908 whole entry): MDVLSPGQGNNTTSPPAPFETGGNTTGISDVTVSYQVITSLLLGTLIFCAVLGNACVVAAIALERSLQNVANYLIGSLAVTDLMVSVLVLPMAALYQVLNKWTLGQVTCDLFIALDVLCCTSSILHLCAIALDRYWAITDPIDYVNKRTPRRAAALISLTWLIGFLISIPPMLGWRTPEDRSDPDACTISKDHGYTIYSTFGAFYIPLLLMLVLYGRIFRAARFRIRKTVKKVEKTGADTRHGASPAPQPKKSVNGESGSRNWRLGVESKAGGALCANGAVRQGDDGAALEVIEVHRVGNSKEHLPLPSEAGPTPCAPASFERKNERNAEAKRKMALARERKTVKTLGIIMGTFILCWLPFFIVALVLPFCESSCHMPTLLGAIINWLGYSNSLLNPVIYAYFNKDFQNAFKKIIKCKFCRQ
Type: functional, cell-based

AC50 lookup needed for C#C[C@]1(O)CC[C@H]2[C@@H]3CCc4cc(OC5CCCC5)ccc4[C@H]3CC[C@@]21C [QUINESTROL] , thanks.
> 10 µM

AC50 lookup needed for C#C[C@]1(O)CC[C@H]2[C@@H]3CCC4=Cc5oncc5C[C@]4(C)[C@H]3CC[C@@]21C [DANAZOL] , thanks.
> 10 µM

AC50 lookup needed for NCC[C@H](O)C(=O)N[C@@H]1C[C@H](N)[C@@H](O[C@H]2O[C@H](CN)[C@@H](O)[C@H](O)[C@H]2O)[C@H](O)[C@H]1O[C@H]1O[C@H](CO)[C@@H](O)[C@H](N)[C@H]1O [AMIKACIN] , thanks.
> 10 µM

AC50 lookup needed for COc1ccc(CC(C)(C)NC[C@H](O)c2cc(O)cc3c2OCC(=O)N3)cc1 [OLODATEROL] , thanks.
29 µM

AC50 lookup needed for COc1ccc2c3c1O[C@H]1[C@@H](O)C=C[C@H]4[C@@H](C2)N(C)CC[C@@]341 [CODEINE] , thanks.
> 10 µM

AC50 lookup needed for CCOC(=O)[C@H](CCc1ccccc1)N[C@@H](C)C(=O)N1C(=O)N(C)C[C@H]1C(=O)O , thanks.
> 30 µM

AC50 lookup needed for Cc1cn([C@H]2C[C@H](N=[N+]=[N-])[C@@H](CO)O2)c(=O)[nH]c1=O [ZIDOVUDINE] , thanks.
> 10 µM

AC50 lookup needed for O=C(NCCN1CCOCC1)c1ccc(Cl)cc1 [MOCLOBEMIDE] , thanks.
> 10 µM
